System: A549/ATCC NSCLC
Experiment: NCI-60 one-dose screen, 48 h
Details: 10 µM unless noted
This is part of a sample that, as a whole, favours compounds with a hit. Of some 83,000 tested, about 20% had one in any assay. Active and inactive are the calls of the source. Rule for the calls: active = growth percent below 10; inactive = the rest.
Outcome codes: true (active), false (inactive)

1) O=C(OCCOCCO)N(c1cccc(Br)c1)c1nc(SCCN2CCOCC2)nc2c1cnn2CC(Cl)c1ccc(Br)cc1 (centres undefined) | false
2) O=C1CCC(N2C(=O)c3cccc(NCCCCCC(=O)N4CCN(c5ccc6nc7c(nc6c5C(F)(F)F)C(=O)c5ncccc5C7=O)CC4)c3C2=O)C(=O)N1 (centres undefined) | true
3) CCCn1c(NC(=O)c2cccc(C(N)=O)c2)nc2cc(CN3CCCCC3)ccc21 | false
4) COc1cc2cc(C(=O)N3C[C@@H](CCl)c4c3cc(OC(=O)N(CCC(=O)N3CCN(C)CC3)[C@H]3CCSSC3)c3ccccc43)[nH]c2c(OC)c1OC | true

----------
Test system: SF-295 CNS
Experiment: NCI-60 one-dose screen, 48 h (100 = growth as untreated, 0 = no growth, -100 = all killed)
Details: 10 µM unless noted
About 83,000 compounds went through this panel and 20% of them were active in at least one assay; those are over-represented in the sample as a whole. Active and inactive are the calls of the source. How the source made its calls: active means growth percent below 10; inactive means the rest.
Reported growth values follow for various compounds
Assay Endpoint: growth

1. CC[C@]12C=CCN3CC[C@@]4(c5ccc(OC)cc5N(C)[C@H]4[C@@](O)(C(=O)OC)[C@@H]1OC(=O)CCC[P+](c1ccc(OC)cc1)(c1ccc(OC)cc1)c1ccc(OC)cc1)[C@@H]32 | -93.7% (active)
2. O=C1c2cccc3c(N4CCN(c5ccccc5)CC4)ccc(c23)C(=O)N1c1cccc(-c2nn(-c3ccccc3)cc2-c2nc3ccccc3s2)c1 | 103% (inactive)
3. O=c1[nH]c2ccccc2cc1COc1ccc(Nc2nccc(-c3ccc(Cl)cc3)n2)cc1 | 90.8% (inactive)
4. Cc1cccc(-c2ccccc2Oc2ccc3nnc(Cl)n3n2)c1 | 95.3% (inactive)
5. O=C(Nc1ccc(-c2ccc3c(c2)NC(=O)/C3=C\c2ccc[nH]2)cc1)Nc1ccc(Cl)c(Cl)c1 | 23.3% (inactive)
6. Clc1ccc(-c2nc3c4c(-c5ccccc5)c(-c5ccccc5)n(Cc5ccccc5)c4ncn3n2)cc1 | -14.1% (active)
7. CCOc1ccccc1[C@H]1C(C(=O)c2ccc(Cl)cc2)C2(N[C@@H]1c1ccccc1)C(=O)Nc1ccc(Br)cc12 (stereo partly drawn) | -42.6% (active)
8. COc1ccc2[nH]cc(-c3cc4nc(-c5cn(C)c6ncccc56)cc(N)n4n3)c2c1 | -71.4% (active)

----------
Reported growth values follow for various compounds
System: HT29 colon
Assay: NCI-60 one-dose screen, 48 h (100 = growth as untreated, 0 = no growth, -100 = all killed)
Details: 10 µM
Protocol: Growth inhibition of the HT29 human tumor cell line is measured as a screen for anti-cancer activity. Cells are grown in 96 well plates and exposed to the test compound for 48 hours. Compounds are tested at a single concentration, which is 10^-5 M for most compounds. The reported endpoint is percent growth (GI% or GIPRCNT), where numbers from 0 - 100% represent growth inhibition, and numbers from -100% - 0 represent cell death. For example, a value of 40 represents 60% growth inhibition. […]
Compounds without any hit were thinned out: in the full panel of roughly 83,000, 20% have a hit.
Assay Endpoint: growth (%)

1. CC/C(=C(/c1ccc(O)cc1)c1ccc(OCCN(C)C(=O)CCOCCNC(=O)Cc2ccc3c(c2)CN([C@@H]2CCC(=O)NC2=O)C3=O)cc1)c1ccccc1 | 91.3
2. CC/C(=C(\c1ccc(O)cc1)c1ccc(OCCN(C)C(=O)COCCNC(=O)Cc2ccc3c(c2)CN([C@@H]2CCC(=O)NC2=O)C3=O)cc1)c1ccccc1 | 80.1
3. CC/C(=C(\c1ccc(O)cc1)c1ccc(OCCNC)cc1)c1ccccc1 | 55.6
4. CC/C(=C(\c1ccc(O)cc1)c1ccc(OCCN(C)C(=O)CCOCCNC(=O)c2ccc3c(c2)CN([C@@H]2CCC(=O)NC2=O)C3=O)cc1)c1ccccc1 | 89

----------
Tested on: HCT-15 colon
Test: NCI-60 one-dose screen, 48 h (100 = growth as untreated, 0 = no growth, -100 = all killed)
Details: 10 µM unless noted
The panel holds about 83,000 compounds, 20% with a hit somewhere; the sample as a whole holds those more often. Calls of active or inactive are those of the source. How the source made its calls: active means growth percent below 10; inactive means the rest.
Assay Endpoint: growth

1) COc1ccc(C(=O)/C=C/c2ccc3c(c2)OCCO3)cc1S(N)(=O)=O | 41.9% (inactive)
2) c1ccc(CSc2nnc(-c3ccc4nc(-c5ccccc5)[nH]c4c3)o2)cc1 | 12.7% (inactive)
3) Cc1ccc(C(=O)Nc2cccc(C(=O)NC(=S)Nc3ccc(S(N)(=O)=O)cc3)c2)cc1 | 80.5% (inactive)
4) Nc1nn2c(-c3cc4ccccc4oc3=O)ccnc2c1N=Nc1ccccc1 | 82.5% (inactive)
5) COc1ccc(NC(=O)NN2C(=O)c3ccccc3N(C)C2c2ccc(OC)cc2)cc1 (centres undefined) | 103% (inactive)
6) Oc1ccc(Cl)c(Nc2ncnc3c2cnn3CC(Cl)c2ccc(Br)cc2)c1 (centres undefined) | 37.9% (inactive)
7) CCOc1ccccc1NC(=O)N/C(N)=N/c1nc2ccccc2s1 | 2.52% (active)
8) Nc1cc2ccccc2c(=O)n1NC(=O)c1ccccc1 | 93.8% (inactive)
9) CCOc1ccccc1[C@H]1C(C(=O)c2ccc(Cl)cc2)C2(N[C@@H]1c1ccccc1)C(=O)Nc1ccc(Cl)cc12 (some centres undefined) | 20.3% (inactive)
10) COc1ccc(S(=O)(=O)Nc2ccc(-c3ccc4c(c3)NC(=O)/C4=C\c3ccc[nH]3)cc2)cc1OC | 41.4% (inactive)
11) COc1cc(CNC(=O)C[C@H](C)CCC=C(C)C)ccc1OCc1cn(-c2cccc(C(F)(F)F)c2)nn1 | 56.8% (inactive)
12) COc1c(B(O)O)cc(F)cc1-c1nc2c(F)cc3[nH]ncc3c2c2c1CCCC2 | 4.25% (active)
13) C#CCN(C)CCCOc1ccc(N(C)C(=O)c2cc(C(C)C)c(O)cc2O)cc1Cl | 4.84% (active)
14) N#CC1=C(c2cccs2)Nc2c(c(-c3ccccc3)nn2-c2ccccc2)C12C(=O)Nc1ccc(Cl)cc12 (centres undefined) | 10.5% (inactive)
15) CCCn1c(NC(=O)c2cccc(C(N)=O)c2)nc2ccc(CN3CCCCC3)cc21 | 67.1% (inactive)
16) COc1ccc(N=Nc2c(N)nn3c(-c4cc5cc(Br)ccc5oc4=O)ccnc23)cc1 | 29.9% (inactive)
17) COc1ccc(C(=O)NNC(=O)CSc2nc3sc4c(c3c(=O)n2-c2ccc(Cl)cc2)CCCC4)cc1 | 76.3% (inactive)
18) O=C(NC(=S)N1CCN(c2ncnc3c2cnn3-c2ccccc2)CC1)c1ccc(F)cc1 | 49.9% (inactive)
19) CC(=O)c1ccc2c(N)c(C(=O)Nc3ccc(C(F)(F)F)cc3)sc2n1 | 40.7% (inactive)

----------
System: IGROV1 ovarian
Assay: NCI-60 one-dose screen, 48 h (100 = growth as untreated, 0 = no growth, -100 = all killed)
Conditions: 10 µM unless noted
Compounds without any hit were thinned out: in the full panel of roughly 83,000, 20% have a hit.
Reported growth values follow for various molecules
Assay Endpoint: growth (%)

1. c1n[nH]cc1-c1nc2ccc3cn[nH]c3c2c2c1CCCC2 | 66.5
2. CC(=O)C[n+]1cccc2c3ccccc3ccc21 | 95.2
3. COc1ccc(-n2c(NC(=O)N3CCN(C)CC3)c(C#N)c3ccccc32)cc1 | 34.2
4. C/C(=N\Nc1ccc(S(N)(=O)=O)cc1)c1cnn(-c2cc(=O)[nH]c3ccc(Br)cc23)c1C | 56.9
5. O=C(CSc1nnc(-c2ccc(-c3nc4ccc(Cl)cc4[nH]3)cc2)o1)Nc1ccc(Br)cc1 | 53.4
6. CC(=O)c1c2c(c3ccc4c5ccccc5ccc4n13)C(=O)c1ccccc1C2=O | 84.5
7. Cn1cc(-c2cc(N)n3nc(-c4c[nH]c5ccccc45)cc3n2)c2cc(Cl)ccc21 | -65.5
8. OCCn1cc(-c2nc3ccc4[nH]ncc4c3c3c2CCCC3)cn1 | 52
9. COc1cc(CNC(=O)C[C@H](C)CCC=C(C)C)ccc1OCc1cn(-c2cccc(C(F)(F)F)c2)nn1 | 102
10. Cc1cnc2ccc(Oc3ccccc3-c3ccccc3)nn12 | 105
11. CC1CCc2c(sc3nc(SCC(=O)c4cccc([N+](=O)[O-])c4)n(-c4ccccc4)c(=O)c23)C1 (configuration not stated) | 74.8
12. Cn1cc(-c2cc(N)n3nc(-c4c[nH]c5ccccc45)cc3n2)c2ccccc21 | -79.8
13. N#C/C(=C/c1ccc([N+](=O)[O-])cc1)c1nnc(NC(=O)c2ccc(-n3c(=O)[nH]c4ccccc4c3=O)cc2)s1 | 98.6
14. Cc1ccc(C(=O)Nc2cccc(C(=O)NC(=S)Nc3ccc(S(N)(=O)=O)cc3)c2)cc1 | 96.2
15. NC(=O)c1ccc(-c2ccc3ncnc(N4CCc5cc(F)c(Cl)cc54)c3c2)cn1 | 2.18
16. COc1ccc(-c2nc3ccccc3n2CC(=O)N=Nc2c(O)[nH]c3ccc(OC)cc23)cc1 | 45.7
17. CCOC(=O)/C(F)=C/C1CC1CCc1ccc(OCC)cc1 (configuration not stated) | 92.5
18. O=C(Nc1ccc(-c2ccc3c(c2)NC(=O)/C3=C\c2ccc[nH]2)cc1)Nc1cccc(Cl)c1 | -62.2
19. COC(=O)c1cc(C(=O)CBr)n2c1ccc1c3ccccc3ccc12 | 33.5
20. Cc1ccc(Cl)cc1NC(=O)Nc1nc2ccc([N+](=O)[O-])cc2s1 | 8.2
21. CC(C)(C)C(=O)c1c2c(c3ccc4c5ccccc5ccc4n13)C(=O)c1ccccc1C2=O | 95.7
22. COc1ccc(NC(=O)NN2C(=O)c3ccccc3N(C)C2c2ccc(OC)cc2)cc1 (configuration not stated) | 108
23. C[C@H]1[C@@H](CC(=O)N[C@@H](Cc2coc3ccccc23)B(O)O)O[C@@H]2OC3(C)CC[C@H]4[C@H](C)CC[C@@H]1[C@@]24O3 | 9.89
24. COc1cc2cc(C(=O)N3C[C@@H](CCl)c4c3cc(OC(=O)N(CCC(=O)N3CCN(C)CC3)C3CCCCC3)c3ccccc43)[nH]c2c(OC)c1OC | -59.2
25. CCN(C(=O)CN1C(=O)/C(=C/c2ccco2)SC1=S)C1CCS(=O)(=O)C1 (configuration not stated) | 111
26. Cn1cc(-c2cc(N)n3nc(-c4c[nH]c5ccccc45)cc3n2)c2cc(Br)ccc21 | -70.6
27. Cc1ccc(C2CC(c3ccc(NC(=S)Nc4ccccc4)cc3)=NN2c2ccc(S(N)(=O)=O)cc2)cc1 (configuration not stated) | 19.2
28. O=C(/C=C1\C(=O)N(Cc2ccccc2)c2ccccc21)c1cc2ccccc2oc1=O | 67.4
29. COc1c2c(cc3c1C(CCc1ccccc1)N(C)CC3)OCO2 (configuration not stated) | -4.07
30. Cn1cc(-c2cc(N)n3nc(-c4c[nH]c5ccc(Cl)cc45)cc3n2)c2cccnc21 | -77.7
31. O=C(NN1C(=O)/C(=C/C=C/c2ccc([N+](=O)[O-])o2)SC1=S)c1ccc(O)cc1 | -95.6
32. CC[C@]12C=CCN3CC[C@]4(C(=C(C(=O)OC)C1)Nc1cc(OC)c([C@@H]5[C@H]6O[C@H]6[C@@]6(CC)CC(C(=O)OC)=C7Nc8cc(OC)ccc8[C@@]78CCN5[C@@H]68)cc14)[C@@H]32 | 64
33. OC1CCC(Cn2c(C(F)(F)F)cc3c(Cl)ncnc32)CC1 (configuration not stated) | -85.7
34. O=C(CSc1nc2sc3c(c2c(=O)n1-c1ccc(Cl)cc1)CCCC3)NNC(=O)c1ccc(F)cc1 | 63.3
35. COc1cc2cc(C(=O)N3C[C@@H](CCl)c4c3cc(OC(=O)N(C)CCSSCCN3CCOCC3)c3ccccc43)[nH]c2c(OC)c1OC | -27.6
36. C[C@@H]1[C@H]2C[C@@H](C[C@H]1NCc1nc3ccccc3n1C1CCCCCC1)C2(C)C | 75.8
37. Cc1nc(N)ncc1-c1ccc2ncnc(N3CCc4cc(F)c(Cl)cc43)c2c1 | -10.1

Ref: PubChem BioAssay (NCI)
